# MEASUREMENT PROTOCOL: Vorinostat serum pharmacokinetics
# Format: in vivo, human
# STATED CONDITIONS: 1,700 mg orally once daily, mean of 3 patients (SD 3.09)
ENDPOINT: Cmax
A complete answer gives the number followed by the unit.

query: Requested read-out: Cmax. Entry: O=C(CCCCCCC(=O)Nc1ccccc1)NO [vorinostat, suberoylanilide hydroxamic acid]
result: 4.49 µM
